The binders listed here are annotated with their % of binding in the absence of HGF.
- measured-target: T1, cMet-Fc fusion protein (extracellular domain of the cMet receptor expressed as an Fc-fusion protein) (human, UniProt P08581 25-932)
- T1 construct: extracellular domain; also called soluble cMet-Fc-fusion protein; soluble cMet receptor; not shown: Fc part
- T1 sequence (P08581 25-932): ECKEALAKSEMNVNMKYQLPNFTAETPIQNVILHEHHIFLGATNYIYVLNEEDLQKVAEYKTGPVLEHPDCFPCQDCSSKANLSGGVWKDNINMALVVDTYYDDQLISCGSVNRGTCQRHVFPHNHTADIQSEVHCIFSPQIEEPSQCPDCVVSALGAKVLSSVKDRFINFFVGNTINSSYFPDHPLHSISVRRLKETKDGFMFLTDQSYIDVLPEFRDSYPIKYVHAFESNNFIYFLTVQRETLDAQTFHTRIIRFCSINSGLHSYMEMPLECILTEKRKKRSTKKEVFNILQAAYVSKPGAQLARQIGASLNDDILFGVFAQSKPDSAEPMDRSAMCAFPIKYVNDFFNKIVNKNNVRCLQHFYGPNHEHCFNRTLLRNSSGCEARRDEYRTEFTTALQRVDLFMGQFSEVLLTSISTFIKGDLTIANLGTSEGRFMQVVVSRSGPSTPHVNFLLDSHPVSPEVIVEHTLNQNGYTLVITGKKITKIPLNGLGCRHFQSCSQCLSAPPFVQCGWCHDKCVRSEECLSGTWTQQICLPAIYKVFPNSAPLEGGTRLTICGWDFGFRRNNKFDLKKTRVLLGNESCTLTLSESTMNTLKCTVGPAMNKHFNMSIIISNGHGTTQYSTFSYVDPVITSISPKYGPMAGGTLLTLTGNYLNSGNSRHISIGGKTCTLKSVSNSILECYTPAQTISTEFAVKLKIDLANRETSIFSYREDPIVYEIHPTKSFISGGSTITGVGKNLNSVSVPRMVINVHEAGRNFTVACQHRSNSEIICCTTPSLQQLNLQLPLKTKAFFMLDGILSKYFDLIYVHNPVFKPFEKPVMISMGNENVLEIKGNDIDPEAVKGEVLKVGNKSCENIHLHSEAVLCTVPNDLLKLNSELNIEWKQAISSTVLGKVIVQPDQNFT
- experiment-description: phage ELISA on cMet-Fc, competitor HGF 500 ng/mL

binder	unit-info	% of binding in the absence of HGF
AGAWNCEYPTFICEWQGA [570-E07 peptide-displaying phage (SEQ ID NO: 012)]	%	71
GSFFPCWRIDRFGYCHANAP [551-H10 peptide-displaying phage (SEQ ID NO: 370)]	%	49
AQVEDMATVHFKFNPATHEVIW [524-H02 peptide-displaying phage (SEQ ID NO: 492)]	%	25
AGDHYCWEEWWFCWDSGT [482-A12 peptide-displaying phage (SEQ ID NO: 021)]	%	79
AQYDTWVFQFIHEVPGELVAMQ (also called linear isolate 94-E08) [94-E08 peptide-displaying phage (SEQ ID NO: 454)]	%	74
AGETFCVGNPSFECWSWGT [545-E05 peptide-displaying phage (SEQ ID NO: 094)]	%	32
AGQYLCTQAALGCPEWGT [465-E11 peptide-displaying phage (SEQ ID NO: 029)]	%	124
